- target_or_system: Caspase-9 (Homo sapiens, UniProt P55211)
- Sequence (P55211 1-315 limits assumed): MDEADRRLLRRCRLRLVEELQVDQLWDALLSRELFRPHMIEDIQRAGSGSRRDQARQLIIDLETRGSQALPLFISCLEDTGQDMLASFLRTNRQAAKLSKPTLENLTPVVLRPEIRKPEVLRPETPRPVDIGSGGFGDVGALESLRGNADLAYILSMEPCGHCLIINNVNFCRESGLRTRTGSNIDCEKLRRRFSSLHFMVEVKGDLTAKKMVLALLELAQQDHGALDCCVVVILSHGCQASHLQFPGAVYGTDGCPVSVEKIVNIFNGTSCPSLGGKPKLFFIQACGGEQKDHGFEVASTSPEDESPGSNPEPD
- Sequence (P55211 331-416 limits assumed): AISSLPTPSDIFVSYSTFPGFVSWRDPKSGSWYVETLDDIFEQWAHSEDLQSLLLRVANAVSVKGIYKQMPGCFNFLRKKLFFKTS
attribute_measured: Ki (nM)

COC[C@@H]1CCCN1S(=O)(=O)c1ccc2c(c1)C(=O)C(=O)N2 :: 1100

[1] O=C1C(=O)N(Cc2ccccc2)c2ccc(S(=O)(=O)N3CCC[C@H]3COc3ccccc3)cc21
[2] O=C1Nc2ccc(S(=O)(=O)N3CCC[C@H]3CNc3ccccc3)cc2C1=O
Query: Would you kindly point out which of 1 and 2 has the smaller Ki figure? Identify your pick by its label.
Response: 1

###

- target_or_system: Caspase-7 (Homo sapiens)
- Sequence (P55210 whole entry): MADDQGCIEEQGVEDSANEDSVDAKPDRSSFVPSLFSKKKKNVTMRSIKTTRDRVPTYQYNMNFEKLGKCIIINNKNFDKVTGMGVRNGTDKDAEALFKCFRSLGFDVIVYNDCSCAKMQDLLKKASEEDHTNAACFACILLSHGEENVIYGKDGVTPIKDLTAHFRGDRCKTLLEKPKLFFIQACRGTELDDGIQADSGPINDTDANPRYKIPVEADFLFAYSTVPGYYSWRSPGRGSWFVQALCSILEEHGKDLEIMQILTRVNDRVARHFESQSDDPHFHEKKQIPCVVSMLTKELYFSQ
pKi: −log10 of the molar value.
attribute_measured: pKi

Consider the reported pKi for these molecules:
COC[C@@H]1CCCN1S(=O)(=O)c1ccc2c(c1)C(=O)C(=O)N2 :: 6.77
O=C1Nc2ccc(S(=O)(=O)N3CCC[C@H]3COc3ccccc3)cc2C1=O :: 7.33

[A] O=C1C(=O)N(Cc2ccccc2)c2ccc(S(=O)(=O)N3CCC[C@H]3COc3ccccc3)cc21
[B] O=C1C(=O)N(Cc2ccccc2)c2ccc([N+](=O)[O-])cc21
Query: From the recorded data, which exceeds the other in pKi: A or B ? Label of pick, please.
Response: A

###

- target_or_system: Caspase-1 (Homo sapiens, UniProt P29466)
- Sequence (P29466 whole entry): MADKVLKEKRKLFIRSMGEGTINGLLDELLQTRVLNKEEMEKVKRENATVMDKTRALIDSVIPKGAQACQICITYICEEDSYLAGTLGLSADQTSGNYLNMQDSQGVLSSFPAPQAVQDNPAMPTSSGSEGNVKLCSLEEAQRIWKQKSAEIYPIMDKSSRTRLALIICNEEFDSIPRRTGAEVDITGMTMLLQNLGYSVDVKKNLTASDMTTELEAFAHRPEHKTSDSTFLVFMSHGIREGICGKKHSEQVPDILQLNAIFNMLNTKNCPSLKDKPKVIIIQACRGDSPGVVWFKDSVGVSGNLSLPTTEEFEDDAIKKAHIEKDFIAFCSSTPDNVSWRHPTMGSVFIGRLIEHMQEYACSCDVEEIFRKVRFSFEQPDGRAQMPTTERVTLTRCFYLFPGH
attribute_measured: Ki (µM)

CN1C(=O)C(=O)c2cc([N+](=O)[O-])ccc21 :: 12

[P] O=C1Nc2ccc(S(=O)(=O)N3CCC[C@H]3CNc3ccccc3)cc2C1=O
[Q] O=C1Nc2ccc(S(=O)(=O)N3CCCC3)cc2C1=O
Query: When P and Q are compared, which has the higher number for Ki? Answer with the label corresponding to your selection.
Response: P

###

- target_or_system: Caspase-3 (Homo sapiens, UniProt P42574)
- Sequence (P42574 whole entry): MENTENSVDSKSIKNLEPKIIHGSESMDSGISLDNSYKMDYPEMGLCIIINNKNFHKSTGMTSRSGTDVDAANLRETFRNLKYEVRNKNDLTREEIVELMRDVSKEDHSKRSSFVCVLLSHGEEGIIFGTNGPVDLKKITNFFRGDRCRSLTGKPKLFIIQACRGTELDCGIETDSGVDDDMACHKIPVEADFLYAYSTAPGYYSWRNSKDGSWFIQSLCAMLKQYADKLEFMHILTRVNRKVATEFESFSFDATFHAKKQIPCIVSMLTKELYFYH
- procedure_details: Inhibition of recombinant human caspase-3
attribute_measured: IC50 (nM)

Answered cases to consult:
O=C1Nc2ccc(S(=O)(=O)N3CCCC3C(=O)Nc3ccccc3)cc2C1=O (configuration not stated) :: 140
O=C1Nc2ccc(S(=O)(=O)N3CCC[C@H]3CNc3ccccc3)cc2C1=O :: 31
O=C1Nc2ccc(S(=O)(=O)N3CCCC3)cc2C1=O :: 2800

[P] O=C1C(=O)N(Cc2ccccc2)c2ccc(S(=O)(=O)N3CCC[C@H]3COc3ccccc3)cc21
[Q] COC[C@@H]1CCCN1S(=O)(=O)c1ccc2c(c1)C(=O)C(=O)N2
Query: Lab note: record which item had the higher IC50, P or Q . Give the label of your selection.
Response: Q

###

- target_or_system: Caspase-3 (Homo sapiens)
- procedure_details: In vitro inhibition of Caspase-3 in presence of naive chondrocyte cell cytosol
attribute_measured: pIC50
Lab note: report pIC50 as minus log10 of the concentration in molar units, number only.

Query: Endpoint output: pIC50 of CN1C(=O)C(=O)c2cc(S(=O)(=O)N3CCC[C@H]3COc3ccccc3)ccc21 . Value?
Response: 5.12

###

- target_or_system: Caspase-3 (Homo sapiens, UniProt P42574)
- procedure_details: In vitro inhibition of Caspase-3 in presence of camptothecin induced chondrocyte cell cytosol.
attribute_measured: IC50 (nM)
Kindly answer with a numeric value in nM, unit omitted.

Query: Returns the measured IC50 for the input molecule. Input: CN1C(=O)C(=O)c2cc(S(=O)(=O)N3CCC[C@H]3COc3ccccc3)ccc21
Response: 840

###

The entries below come with measured pKi values attached.
- target_or_system: UniProt P42575
- Sequence (P42575 170-325 limits assumed): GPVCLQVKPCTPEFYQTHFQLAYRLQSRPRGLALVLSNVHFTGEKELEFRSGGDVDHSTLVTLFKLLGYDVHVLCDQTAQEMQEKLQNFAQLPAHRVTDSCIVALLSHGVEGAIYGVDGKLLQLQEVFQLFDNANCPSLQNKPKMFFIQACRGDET
- Sequence (P42575 334-452 limits assumed): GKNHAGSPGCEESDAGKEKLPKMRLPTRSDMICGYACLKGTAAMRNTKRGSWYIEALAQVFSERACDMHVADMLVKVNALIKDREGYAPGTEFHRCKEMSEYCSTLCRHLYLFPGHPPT
- procedure_details: Inhibitory activity against caspase-2
- setup_conditions: read-out: Ki app
pKi: −log10 of the molar value.

Here is how some molecules turned out for pKi.
O=C1C(=O)N(Cc2ccccc2)c2ccc(S(=O)(=O)N3CCC[C@H]3COc3ccccc3)cc21 :: 5.40
O=C1C(=O)N(Cc2ccccc2)c2ccc([N+](=O)[O-])cc21 :: < 4.60

# ---- query molecule ----
Query: Bench note: what pKi did CN1C(=O)C(=O)c2cc([N+](=O)[O-])ccc21 show?
Response: < 4.30

###

Sequence of the target: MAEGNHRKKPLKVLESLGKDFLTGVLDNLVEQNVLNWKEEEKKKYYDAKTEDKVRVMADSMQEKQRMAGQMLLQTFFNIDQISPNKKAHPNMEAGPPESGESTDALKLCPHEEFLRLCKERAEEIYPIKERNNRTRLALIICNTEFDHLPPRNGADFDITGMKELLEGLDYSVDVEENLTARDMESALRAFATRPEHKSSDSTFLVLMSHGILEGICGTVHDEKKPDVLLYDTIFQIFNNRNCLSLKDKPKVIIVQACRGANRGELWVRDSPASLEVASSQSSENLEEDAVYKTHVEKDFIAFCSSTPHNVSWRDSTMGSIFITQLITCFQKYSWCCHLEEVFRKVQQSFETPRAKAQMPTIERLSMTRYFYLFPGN
attribute_measured: Ki (µM)

[P] O=C1Nc2ccc(S(=O)(=O)N3CCC[C@H]3COc3ccccc3)cc2C1=O
[Q] CN1C(=O)C(=O)c2cc([N+](=O)[O-])ccc21
Query: Of the two listed items, P and Q , which carries the larger Ki figure? // caller expects the label of the chosen entry
Response: P
(P: 33 µM, Q: 4 µM)

###

Sequence of the target: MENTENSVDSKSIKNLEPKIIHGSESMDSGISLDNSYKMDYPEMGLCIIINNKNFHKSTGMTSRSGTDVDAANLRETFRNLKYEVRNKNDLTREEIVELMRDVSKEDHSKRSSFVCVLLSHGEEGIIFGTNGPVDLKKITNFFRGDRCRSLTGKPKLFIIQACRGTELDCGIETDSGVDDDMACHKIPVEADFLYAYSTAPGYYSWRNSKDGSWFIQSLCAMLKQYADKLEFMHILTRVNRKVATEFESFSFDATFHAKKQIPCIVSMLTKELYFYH
pKi: −log10 of the molar value.
attribute_measured: pKi

Illustrative cases are given below, each with its answer.
CN1C(=O)C(=O)c2cc([N+](=O)[O-])ccc21 :: 6.30
O=C1C(=O)N(Cc2ccccc2)c2ccc([N+](=O)[O-])cc21 :: 6.89
CN(CC1CCCN1S(=O)(=O)c1ccc2c(c1)C(=O)C(=O)N2)c1ccccc1 (stereo unspecified) :: 4.92
O=C1Nc2ccc(S(=O)(=O)N3CCCC3)cc2C1=O :: 5.85

[I] O=C1C(=O)N(Cc2ccccc2)c2ccc(S(=O)(=O)N3CCC[C@H]3COc3ccccc3)cc21
[II] COC[C@@H]1CCCN1S(=O)(=O)c1ccc2c(c1)C(=O)C(=O)N2
Query: Just curious, which one has the larger pKi reading, I or II ? Refer to your chosen item by its label in the answer.
Response: I

###

- target_or_system: Caspase-6 (Homo sapiens)
- Sequence (P55212 24-179 limits assumed): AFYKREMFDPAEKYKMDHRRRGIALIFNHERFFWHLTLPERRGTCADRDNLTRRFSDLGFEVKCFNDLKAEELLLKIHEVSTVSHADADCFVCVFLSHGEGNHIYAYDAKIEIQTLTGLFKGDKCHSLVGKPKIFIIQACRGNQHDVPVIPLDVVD
- Sequence (P55212 194-293 limits assumed): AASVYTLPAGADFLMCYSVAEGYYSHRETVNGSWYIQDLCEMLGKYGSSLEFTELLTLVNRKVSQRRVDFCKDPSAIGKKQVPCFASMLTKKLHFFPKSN
attribute_measured: Ki

// solved cases for Ki follow
O=C1C(=O)N(Cc2ccccc2)c2ccc(S(=O)(=O)N3CCC[C@H]3COc3ccccc3)cc21 :: > 5 µM
O=C1Nc2ccc(S(=O)(=O)N3CCCC3)cc2C1=O :: > 50 µM

Next item in the queue.
Query: Query for Caspase-6 (Homo sapiens): what Ki does the record show for COC[C@@H]1CCCN1S(=O)(=O)c1ccc2c(c1)C(=O)C(=O)N2 ?
Response: > 25 µM
